Tested on: wheat (Triticum aestivum)
Test: Test C postemergence, visual plant response rating
Format: in vivo
Details: Test C, postemergence, 125 g ai/ha
The threshold is inclusive: Wheat plant response rating (0 to 100 scale) of exactly 50 counts as T; values below receive F.

- Cc1nn(C)c(=O)c(C(=NOC(C)C)c2cc(Cl)cc(Cl)c2Cl)c1O [Compound 295]: T
- C#CCO/N=C(/c1cccc(Br)c1)c1c(O)c(C)nn(C)c1=O [Compound 277]: T
- C#CCO/N=C(/c1ccc(F)c(Cl)c1)c1c(O)c(C)nn(C)c1=O [Compound 229]: T
- CO/N=C(\c1c(O)c(C)nn(C)c1=O)c1cc(SC)cc2ccccc12 [Compound 279]: F
- CON=C(c1csc(C)c1)c1c(O)c(C)nn(C)c1=O [Compound 151]: F

---

Tested on: kochia (Kochia scoparia)
Assay: Test A postemergence, visual plant response rating
Type: in vivo
Details: Postemergence, 125 g ai/ha; 0 to 100 scale (0 no effect, 100 complete control)
The threshold is inclusive: Kochia plant response rating of exactly 20 counts as Satisfied; values below receive Not satisfied.

- C#CCO/N=C(/c1c(O)c(C)nn(C)c1=O)c1cccc2ccccc12: Satisfied
- CON=C(c1ccc(C)s1)c1c(O)c(C)nn(C)c1=O (mixture of isomers): Not satisfied
- CO/N=C(/c1c(O)c(Cl)nn(C)c1=O)c1cccc2ccccc12: Satisfied
- CON=C(c1c(O)c(C)nn(C)c1=O)c1ccc(Cl)c2ccccc12 [Compound 40]: Not satisfied
- CON=C(c1cccc(Cl)c1)c1c(O)c(C)nn(CC2CC2)c1=O (mixture of isomers): Not satisfied
- CO/N=C(/c1cc(C)ccc1C)c1c(O)c(C)nn(C)c1=O: Not satisfied
- CON=C(c1c(O)c(C)nn(C)c1=O)c1cccc2cc(F)ccc12: Satisfied
- CON=C(c1c(O)c(C)nn(C)c1=O)c1ccc(OC)c2ccccc12: Not satisfied
- CO/N=C(\c1cccc(S(C)(=O)=O)c1)c1c(O)c(C)nn(C)c1=O: Not satisfied
- C#CCON=C(c1c(O)c(C)nn(C)c1=O)c1cc(Br)cc2ccccc12: Satisfied
- CCC(=O)Oc1c(C)nn(C)c(=O)c1C(=NOC)c1cccc2ccccc12: Satisfied
- CCn1nc(C)c(O)c(C(=NOC)c2cccc(Cl)c2)c1=O (mixture of isomers): Not satisfied

---

Tested on: foxtail, giant (giant foxtail, Setaria faberii)
Test: Test A preemergence, visual plant response rating
Format: in vivo
Details: 500 g ai/ha Preemergence; approx. 10 days
Entries and their Foxtail, Giant plant response rating (0 to 100 scale)
assayEndpoint: Foxtail, Giant plant response rating (0 to 100 scale)

* CCc1ccccc1C(=NOC)c1c(O)c(C)nn(C)c1=O | 80
* CON=C(c1c(OC(C)=O)c(C)nn(C)c1=O)c1cccc2ccccc12 | 90
* CO/N=C(\c1cc(C)ccc1Cl)c1c(O)c(C)nn(C)c1=O | 10
* CON=C(c1cc(Cl)ccc1C)c1c(O)c(C)nn(C)c1=O | 40
* CON=C(c1c(O)c(C)nn(C)c1=O)c1ccc(F)c2ccccc12 | 100

---

Test system: duck salad (Heteranthera limosa)
Test: Test D flooded paddy test, visual plant response rating
Format: in vivo
Conditions: 250 g ai/ha, scale 0 to 100 (0 no effect, 100 complete control), 13 to 15 d
assayEndpoint: Plant response rating, Ducksalad (Flood)

• C#CCO/N=C(\c1c(O)c(C)nn(C)c1=O)c1cc(Cl)cc2ccccc12 = 75
• CO/N=C(/c1c(O)cnn(C)c1=O)c1ccc(F)c2ccccc12 = 0
• CO/N=C(/c1cc(C)cc(Cl)c1)c1c(O)c(C)nn(C)c1=O = 0
• CCO/N=C(/c1c(O)cnn(C)c1=O)c1ccc(F)c2ccccc12 = 0

---

Test system: pigweed (Amaranthus retroflexus)
Experiment: Test A preemergence, visual plant response rating
Format: in vivo
Details: 125 g ai/ha, preemergence; 0 to 100 scale, 0 no effect, 100 complete control
The threshold is inclusive: Pigweed plant response rating of exactly 30 counts as Y; values below receive N.

- CON=C(c1c(O)c(C)nn(C)c1=O)c1cccc2cc(Br)ccc12 [Compound 100]: Y
- CON=C(c1c(O)c(C)nn(C)c1=O)c1ccc(OC)c2ccccc12 [Compound 55]: N
- CO/N=C(\c1cscc1C)c1c(O)c(C)nn(C)c1=O [Compound 52]: Y
- CCCO/N=C(\c1c(O)c(C)nn(C)c1=O)c1cccc2ccccc12 [Compound 80]: N
- CON=C(c1ccc(F)cc1C)c1c(O)c(C)nn(C)c1=O [Compound 41]: N
- CON=C(c1c(O)c(C)nn(C)c1=O)c1cccc2ccsc12 (single isomer, unassigned) [Compound 47]: N
- CON=C(c1sccc1C)c1c(O)c(C)nn(C)c1=O [Compound 134]: N
- CON=C(c1c(O)c(C)nn(C)c1=O)c1csc2ccccc12 (single isomer, unassigned) [Compound 45]: N
- C=CCO/N=C(\c1c(O)c(C)nn(C)c1=O)c1ccc(F)c2ccccc12 [Compound 86]: Y

---

Tested on: Italian ryegrass (Lolium mutiflorum)
Experiment: Test C postemergence, visual plant response rating
Assay type: in vivo
Settings: Test C, postemergence, 125 g ai/ha
Entries and their Ryegrass, Italian plant response rating (0 to 100 scale)
assayEndpoint: Ryegrass, Italian plant response rating (0 to 100 scale)

* CC(C)O/N=C(\c1c(O)c(Cl)nn(C)c1=O)c1cc(Br)cc2ccccc12 [Compound 233] | 0
* C#CCO/N=C(\c1c(O)c(Cl)nn(C)c1=O)c1ccc(F)c2ccccc12 [Compound 220] | 100
* C#CCO/N=C(/c1cccc(Br)c1)c1c(O)c(C)nn(C)c1=O [Compound 277] | 70
* Cc1nn(C)c(=O)c(C(=NOCC2CC2)c2cc(Cl)cc(Cl)c2Cl)c1O [Compound 293] | 100
* CCO/N=C(\c1c(O)c(Cl)nn(C)c1=O)c1ccc(F)c2ccccc12 [Compound 212] | 80
* CON=C(c1cc(Cl)cc(Cl)c1)c1c(O)c(C)nn(C)c1=O [Compound 189] | 100
* CO/N=C(\c1c(OC(C)=O)c(Cl)nn(C)c1=O)c1cc(Br)cc2ccccc12 [Compound 231] | 10
* C#CCO/N=C(\c1cc(Cl)cc(Cl)c1Cl)c1c(O)c(C)nn(C)c1=O [Compound 187] | 100
* Cc1nn(C)c(=O)c(C(=NOC(C)C)c2cc(Cl)cc(Cl)c2Cl)c1O [Compound 295] | 100
* Cc1nn(C)c(=O)c(C(=NOC(C)C)c2cc(Cl)cc(Cl)c2F)c1O [Compound 167] | 100

---

Tested on: foxtail, giant (giant foxtail, Setaria faberi)
Assay: Test C postemergence, visual plant response rating
Format: in vivo
Details: Postemergence, 31 g ai/ha
Entries and their Foxtail, Giant plant response rating (0 to 100 scale)
assayEndpoint: Foxtail, Giant plant response rating (0 to 100 scale)

* Cc1nn(C)c(=O)c(C(=NOCC2CC2)c2cc(Cl)cc(Cl)c2Cl)c1O | 70
* CO/N=C(/c1cc(C)cc(Cl)c1)c1c(O)c(C)nn(C)c1=O | 30
* CO/N=C(\c1c(O)cnn(C)c1=O)c1ccc(F)c2ccccc12 | 0
* C#CCO/N=C(/c1cccc(/C=C\Cl)c1)c1c(O)c(C)nn(C)c1=O | 10
* C=CCO/N=C(/c1c(O)c(C)nn(C)c1=O)c1cccc2cc(Cl)ccc12 | 70

---

Entries and their Foxtail, Green plant response rating (0 to 100 scale)
Test system: foxtail, green (green foxtail, Setaria viridis)
Test: Test A preemergence, visual plant response rating
Assay type: in vivo
Conditions: 500 g ai/ha Preemergence; approx. 10 days
assayEndpoint: Foxtail, Green plant response rating (0 to 100 scale)

- CO/N=C(/c1ccccc1Cl)c1c(O)c(C)nn(C)c1=O: 20
- CCn1nc(C)c(O)c(/C(=N/OC)c2cccc(C)c2)c1=O: 30
- CCO/N=C(\c1cccc(C)c1C)c1c(O)c(C)nn(C)c1=O: 60
- CO/N=C(\c1cccc(C)c1)c1c(O)c(C2CC2)nn(C)c1=O: 0

---

System: foxtail, giant (giant foxtail, Setaria faberii)
Experiment: Test A postemergence, visual plant response rating
Type: in vivo
Conditions: 500 g ai/ha, postemergence; 0 is no effect, 100 is complete control
assayEndpoint: Foxtail, Giant plant response rating (0 to 100 scale)

- CON=C(c1ccccc1C1CC1)c1c(O)c(C)nn(C)c1=O [Compound 105]: 80
- CO/N=C(/c1ccccc1C(C)C)c1c(O)c(C)nn(C)c1=O [Compound 93]: 40
- C#CCO/N=C(/c1c(O)c(C)nn(C)c1=O)c1cccc2ccccc12 [Compound 82]: 80
- CO/N=C(/c1ccccc1C#N)c1c(O)c(C)nn(C)c1=O [Compound 77]: 10
- CO/N=C(/c1cc(Cl)ccc1C(F)(F)F)c1c(O)c(C)nn(C)c1=O [Compound 95]: 80
- CON=C(c1c(O)c(C)nn(C)c1=O)c1cccc2sccc12 [Compound 59]: 60
- C#CCO/N=C(/c1c(O)c(C)nn(C)c1=O)c1cc(Br)cc2ccccc12 [Compound 112]: 90
- CO/N=C(/c1ccccc1F)c1c(O)c(C)nn(C)c1=O [Compound 34]: 10
- CON=C(c1c(O)c(C)nn(C)c1=O)c1cccc2cc(Br)ccc12 [Compound 100]: 80
